biological target: Human IP6K1 (Homo sapiens); construct: GST (N, cleaved yes); made in house; host or cells: C43 E. coli, pGEX-6P-2; assay: IP6K1 high-throughput screen of the Sigma LOPAC (ADP-Glo Max, single point); type: biochemical; conditions: LOPAC single-point screen, ADP-Glo Max raw signal per well;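 also: final compound concentration 10µM in 5% DMSO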
Sequence (Q92551 whole entry): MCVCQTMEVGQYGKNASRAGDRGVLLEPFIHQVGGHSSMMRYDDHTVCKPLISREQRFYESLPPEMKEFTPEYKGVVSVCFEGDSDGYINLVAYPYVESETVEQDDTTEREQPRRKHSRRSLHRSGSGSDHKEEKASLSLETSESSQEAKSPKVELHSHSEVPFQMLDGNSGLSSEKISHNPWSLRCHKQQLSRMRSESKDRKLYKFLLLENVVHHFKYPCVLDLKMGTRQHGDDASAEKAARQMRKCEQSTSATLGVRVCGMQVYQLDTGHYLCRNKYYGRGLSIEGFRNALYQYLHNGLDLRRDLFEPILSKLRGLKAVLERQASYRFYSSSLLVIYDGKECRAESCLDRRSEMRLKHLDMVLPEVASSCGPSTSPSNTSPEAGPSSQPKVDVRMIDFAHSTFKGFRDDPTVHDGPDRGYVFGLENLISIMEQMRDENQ
Structures can show the parent of a compound that is named as a salt.
Would you mind telling me the reported Raw Signal of each entry?
Numbers only.

Before answering, review these 4 worked examples.
>>> result("COC(=O)[C@H]1[C@H]2C[C@H]3c4[nH]c5ccccc5c4CCN3C[C@H]2CC[C@@H]1O [Rauwolscine hydrochloride]")
54997
>>> result("Cl.NCCCCC(=O)O [5-Aminovaleric acid hydrochloride]")
58378
>>> result("CCCC(=O)NCCc1c2n(c3ccc(OC)cc13)Cc1ccccc1-2")
53632
>>> result("CN1C[C@@H](NS(=O)(=O)N(C)C)C[C@@H]2c3cccc4c3c(cn4C)C[C@H]21 [Mesulergine hydrochloride]")
53840

Okay, here is my list. What is Raw Signal for each of these?
1. O=c1[nH]c2cc(Cl)c(Cl)cc2[nH]c1=O
2. C[C@H]1C[C@H]2[C@@H]3CCC4=CC(=O)C=C[C@]4(C)[C@@]3(F)[C@@H](O)C[C@]2(C)[C@@]1(O)C(=O)CO
3. Oc1ccc2c3c1O[C@H]1c4[nH]c5ccccc5c4C[C@@]4(O)[C@@H](C2)N(CC2CC2)CC[C@]314 [Naltrindole hydrochloride]
4. Cc1[nH]c(=O)c(C#N)cc1-c1ccncc1
5. CN(C)C(N)=NCCC[C@H](N)C(=O)O.Cl [N^G,N^G-Dimethylarginine hydrochloride]
6. Cl.Clc1ccc(N2CCN(Cc3c[nH]c4ncccc34)CC2)cc1 [L-745,870 hydrochloride]
7. O=C1OC(=O)[C@H]2[C@@H]1[C@@H]1CC[C@H]2O1
8. O=C(O)/C=C\C(=O)O.O=C(O)/C=C\C(=O)O.c1cc(CN2CCCCC2)cc(OCCCNc2nc3ccccc3s2)c1 [SKF 95282 dimaleate]

1. 56553
2. 58863
3. 53741
4. 53863
5. 52909
6. 55866
7. 52142
8. 54088

Okay, here is my list. What is Raw Signal for each of these?
1. CCN(CC)CC#CCOC(=O)C(O)(c1ccccc1)C1CCCCC1 (stereo not drawn) [Oxybutynin Chloride]
2. N#C/C(=C\c1ccc(O)c(O)c1)C(=O)NCCCc1ccccc1
3. C#CCN(C)[C@H](C)Cc1ccccc1.Cl [R-(-)-Deprenyl hydrochloride]
4. C=CCN1C[C@H](C)N([C@H](c2ccc(C(=O)N(CC)CC)cc2)c2cccc(OC)c2)C[C@H]1C

[55631, 55783, 53619, 54916]

Okay, here is my list. What is Raw Signal for each of these?
1. CC(C)(C)c1ccc(C(O)CCCN2CCC(C(O)(c3ccccc3)c3ccccc3)CC2)cc1 (stereo not drawn)
2. CC12CC3CC(C)(C1)CC(N)(C3)C2 [Memantine hydrochloride]
3. CNCCC=C1c2ccccc2CCc2ccccc21 [Nortriptyline hydrochloride]
4. CNCCNS(=O)(=O)c1cccc2cnccc12.Cl.Cl [H-8 dihydrochloride]
5. O=C(O)CCC(=O)N1CCC[C@H]1C(=O)O
6. C[N+]1(C)[C@@H]2C[C@@H](OC(=O)[C@H](CO)c3ccccc3)C[C@H]1[C@@H]1O[C@@H]12 [(-)-Scopolamine methyl bromide]
7. CNC[C@H](O)c1cccc(O)c1 [Phenylephrine hydrochloride]

1. 53926
2. 56169
3. 54505
4. 53425
5. 55499
6. 55432
7. 56055

Hey, just so you know, these numbers are from paper PMC5706701.
